- subject-of-test: PI3Kα (Homo sapiens, UniProt P42336, H1047R)
- Sequence (P42336 whole entry H1047R): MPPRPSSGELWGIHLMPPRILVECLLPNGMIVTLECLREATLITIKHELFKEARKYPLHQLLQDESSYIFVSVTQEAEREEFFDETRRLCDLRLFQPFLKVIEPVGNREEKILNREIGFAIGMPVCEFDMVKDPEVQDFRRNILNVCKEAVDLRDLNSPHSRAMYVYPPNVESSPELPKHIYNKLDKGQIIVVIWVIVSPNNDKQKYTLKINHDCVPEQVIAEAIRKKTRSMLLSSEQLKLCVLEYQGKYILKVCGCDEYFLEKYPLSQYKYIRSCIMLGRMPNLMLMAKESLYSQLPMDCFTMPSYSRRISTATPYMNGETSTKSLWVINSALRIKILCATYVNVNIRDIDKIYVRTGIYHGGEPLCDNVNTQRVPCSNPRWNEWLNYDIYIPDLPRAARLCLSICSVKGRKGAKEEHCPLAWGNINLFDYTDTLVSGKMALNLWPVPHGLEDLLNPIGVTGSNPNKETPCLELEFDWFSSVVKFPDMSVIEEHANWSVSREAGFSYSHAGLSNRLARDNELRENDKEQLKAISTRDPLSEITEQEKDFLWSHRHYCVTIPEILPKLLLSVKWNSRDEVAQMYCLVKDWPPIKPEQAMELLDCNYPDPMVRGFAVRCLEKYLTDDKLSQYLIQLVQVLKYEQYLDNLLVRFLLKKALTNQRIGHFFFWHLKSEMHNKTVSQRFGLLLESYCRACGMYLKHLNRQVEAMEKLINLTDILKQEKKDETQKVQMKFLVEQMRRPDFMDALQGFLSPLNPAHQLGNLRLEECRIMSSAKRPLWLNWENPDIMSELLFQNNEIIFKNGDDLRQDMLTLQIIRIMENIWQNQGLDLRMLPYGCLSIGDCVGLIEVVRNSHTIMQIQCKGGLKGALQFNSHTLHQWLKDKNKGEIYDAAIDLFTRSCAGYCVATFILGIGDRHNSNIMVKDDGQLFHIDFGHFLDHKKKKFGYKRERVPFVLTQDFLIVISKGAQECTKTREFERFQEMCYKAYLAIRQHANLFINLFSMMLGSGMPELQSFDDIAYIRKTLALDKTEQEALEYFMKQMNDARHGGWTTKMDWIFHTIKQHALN
- Sequence (P27986 whole entry partner): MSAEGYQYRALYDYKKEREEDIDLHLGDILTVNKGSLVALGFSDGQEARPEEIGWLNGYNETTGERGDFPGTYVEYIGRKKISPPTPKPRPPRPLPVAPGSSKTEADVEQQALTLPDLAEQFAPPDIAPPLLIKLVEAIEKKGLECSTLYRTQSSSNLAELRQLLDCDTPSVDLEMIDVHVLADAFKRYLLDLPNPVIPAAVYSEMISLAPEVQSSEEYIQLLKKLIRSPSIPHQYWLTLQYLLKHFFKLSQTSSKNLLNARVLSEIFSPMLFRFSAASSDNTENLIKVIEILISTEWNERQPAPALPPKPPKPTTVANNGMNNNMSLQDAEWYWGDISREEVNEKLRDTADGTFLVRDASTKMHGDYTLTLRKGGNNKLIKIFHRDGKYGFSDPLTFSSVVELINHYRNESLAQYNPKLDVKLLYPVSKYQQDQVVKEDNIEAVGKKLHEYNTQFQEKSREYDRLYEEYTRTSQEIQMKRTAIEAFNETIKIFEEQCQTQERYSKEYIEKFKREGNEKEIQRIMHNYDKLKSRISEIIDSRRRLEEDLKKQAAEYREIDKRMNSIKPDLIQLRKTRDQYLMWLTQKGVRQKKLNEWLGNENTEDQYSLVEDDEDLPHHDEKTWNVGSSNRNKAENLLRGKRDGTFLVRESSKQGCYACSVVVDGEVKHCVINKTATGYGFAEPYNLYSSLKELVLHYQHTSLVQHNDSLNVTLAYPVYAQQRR
- protocol-details: ADP-Glo IC50 assay
- condition-summary: class symbols; key not given
Reported IC50 values are given for each entry in this list.

molecule | IC50
Cc1ccccc1Nc1ncc(C(=O)NCCOCCOCCOCCOCCOCCC(=O)N[C@H](C(=O)N2C[C@H](O)C[C@H]2C(=O)N[C@@H](C)c2ccc(-c3scnc3C)cc2)C(C)(C)C)cc1NC(=O)c1csc2ccccc12 [Example I-11] | 1 to 10 µM
Cc1cc([C@@H](C)Nc2ccccc2C(=O)O)c2oc(N3CCN(C(=O)CCCCCCCNc4cccc5c4C(=O)N(C4CCC(=O)NC4=O)C5=O)CC3)cc(=O)c2c1 (stereo partly shown) [Example I-143] | 1 to 10 µM
O=C1CCC(N2Cc3cc(C(=O)NCCCCCCCCCNC(=O)c4cc(NC(=O)c5csc6ccccc56)c5c(c4)C(=O)NC5c4cc(F)ccc4Cl)ccc3C2=O)C(=O)N1 (stereo not shown) [Example I-159] | < 0.1 µM
Cc1ccccc1Nc1ncc(C(=O)NCCCCCCC(=O)N[C@H](C(=O)N2C[C@H](O)C[C@H]2C(=O)N[C@@H](C)c2ccc(-c3scnc3C)cc2)C(C)(C)C)cc1NC(=O)c1csc2ccccc12 [Example I-23] | 0.1 to 0.5 µM
Cc1cc([C@@H](C)Nc2ccccc2C(=O)O)c2oc(N3CCN(C(=O)CCCNc4ccc5c(c4)C(=O)N(C4CCC(=O)NC4=O)C5=O)CC3)cc(=O)c2c1 (stereo partly shown) [Example I-146] | 1 to 10 µM
O=C1CCC(N2C(=O)c3ccc(NCCCCCCCNC(=O)c4cc(NC(=O)c5cc(F)cc(C(F)(F)F)c5)c5c(c4)C(=O)N[C@@H]5c4cc(F)ccc4Cl)cc3C2=O)C(=O)N1 (stereo partly shown) [Example I-89] | 0.5 to 1 µM
Cc1ccccc1Nc1ncc(C(=O)NCCc2ccc(Nc3ccc4c(c3)C(=O)N(C3CCC(=O)NC3=O)C4=O)cc2)cc1NC(=O)c1csc2ccccc12 (stereo not shown) [Example I-64] | 0.1 to 0.5 µM
O=C1CCC(N2Cc3cc(C(=O)NCCCCCCCNC(=O)c4cc(NC(=O)c5cc(F)cc(C(F)(F)F)c5)c5c(c4)C(=O)N[C@@H]5c4cc(F)ccc4Cl)ccc3C2=O)C(=O)N1 (stereo partly shown) [Example I-80] | 0.1 to 0.5 µM

// lookup IC50 | system=PI3Kα (Homo sapiens, UniProt P42336, H1047R) | key= Cc1cc(Br)c2oc(N3CCN(C(=O)CCCCCCNC(=O)c4cnc(Nc5ccccc5C)c(NC(=O)c5csc6ccccc56)c4)CC3)cc(=O)c2c1 [Example I-108] 0.1 to 0.5 µM

Record lookup: for PI3Kα (Homo sapiens, UniProt P42336, H1047R), what IC50 belongs to Cc1ccccc1Nc1ncc(C(=O)NCCCCC(=O)N[C@H](C(=O)N2C[C@H](O)C[C@H]2C(=O)N[C@@H](C)c2ccc(-c3scnc3C)cc2)C(C)(C)C)cc1NC(=O)c1csc2ccccc12 [Example I-65] ? 0.5 to 1 µM

###

- subject-of-test: PI3Kα (Homo sapiens, UniProt P42336, H1047R)
- protocol-details: ADP-Glo IC50 assay
- condition-summary: class symbols; key not given
pIC50: −log10 of the molar value.
assay-endpoint: pIC50

Please review the entries below; each comes with its answer.
molecule | pIC50
Cc1ccccc1Nc1ncc(C(=O)NCCCCCC(=O)N[C@H](C(=O)N2C[C@H](O)C[C@H]2C(=O)NCc2ccc(-c3scnc3C)cc2)C(C)(C)C)cc1NC(=O)c1csc2ccccc12 | 6.30 to 7.00
Cc1ccccc1Nc1ncc(C(=O)NCCOCCOCCOCCOCCOCCOCCC(=O)N[C@H](C(=O)N2C[C@H](O)C[C@H]2C(=O)NCc2ccc(-c3scnc3C)cc2)C(C)(C)C)cc1NC(=O)c1csc2ccccc12 | 5.00 to 6.00

Query molecule follows.
Report pIC50 for Cc1cc([C@@H](C)Nc2ccccc2C(=O)O)c2oc(N3CCN(C(=O)CCCCCNc4ccc5c(c4)C(=O)N(C4CCC(=O)NC4=O)C5=O)CC3)cc(=O)c2c1 (stereo partly drawn) please. 6.00 to 6.30

###

- subject-of-test: PI3Kα (Homo sapiens, UniProt P42336, H1047R)
- protocol-details: ADP-Glo IC50 assay
- condition-summary: class symbols; key not given
# reported IC50; entries follow

molecule | IC50
Cc1cc([C@H](C)Nc2ccccc2C(=O)O)c2oc(N3CCN(C(=O)CCCNc4ccc5c(c4)C(=O)N(C4CCC(=O)NC4=O)C5=O)CC3)cc(=O)c2c1 (stereo partly shown) | 1000 to 10000 nM
O=C1CCC(N2Cc3cc(C(=O)NCCCCCCCCCNC(=O)c4cc(NC(=O)c5cccc(F)c5)c5c(c4)C(=O)N[C@H]5c4cc(F)ccc4Cl)ccc3C2=O)C(=O)N1 (stereo partly shown) | 100 to 500 nM
O=C1CCC(N2C(=O)c3ccc(NCCCCCNC(=O)c4cc(NC(=O)c5cc(F)cc(C(F)(F)F)c5)c5c(c4)C(=O)N[C@@H]5c4cc(F)ccc4Cl)cc3C2=O)C(=O)N1 (stereo partly shown) | 500 to 1000 nM
Cc1cc([C@H](C)Nc2ccccc2C(=O)O)c2oc(N3CCN(C(=O)CCCCCNc4ccc5c(c4)C(=O)N(C4CCC(=O)NC4=O)C5=O)CC3)cc(=O)c2c1 (stereo partly shown) | 1000 to 10000 nM
Cc1ccccc1Nc1ncc(C(=O)NCCCCCCCCCNC(=O)c2ccc3c(c2)CN(C2CCC(=O)NC2=O)C3=O)cc1NC(=O)c1csc2ccccc12 (stereo not shown) | 500 to 1000 nM
Cc1ccccc1Nc1ncc(C(=O)NCCOCCOCCOCCC(=O)NCc2ccc3c(c2)CN(C2CCC(=O)NC2=O)C3=O)cc1NC(=O)c1csc2ccccc12 (stereo not shown) | 1000 to 10000 nM

What IC50 value was documented for this molecule, "Cc1ncsc1-c1ccc(CNC(=O)[C@@H]2C[C@@H](O)CN2C(=O)[C@@H](NC(=O)CCCCCCCCCNC(=O)c2cc(NC(=O)c3nsc4ccccc34)c3n2CC(=O)N[C@H]3c2cc(F)ccc2Cl)C(C)(C)C)cc1" ? 500 to 1000 nM

Consider the molecule O=C1CCC(N2Cc3cc(C(=O)NCCCCCCCCCNC(=O)c4cc(NC(=O)c5cccc(F)c5)c5c(c4)C(=O)N[C@@H]5c4cc(F)ccc4Cl)ccc3C2=O)C(=O)N1 (stereo partly shown) and give its measured IC50. 1000 to 10000 nM

Bench note: what IC50 did O=C1CCC(N2C(=O)c3ccc(NCCCCCCCNC(=O)c4cnc(Nc5cc(F)ccc5Cl)c(NC(=O)c5csc6ccccc56)c4)cc3C2=O)C(=O)N1 (stereo not shown) show? 100 to 500 nM

###

- subject-of-test: PI3Kα (Homo sapiens, UniProt P42336, H1047R)
- protocol-details: ADP-Glo IC50 assay
- condition-summary: class symbols; key not given
pIC50: −log10 of the molar value.
assay-endpoint: pIC50

Example results:
molecule | subject-of-test | pIC50
Cc1cc([C@H](C)Nc2ccccc2C(=O)O)c2oc(N3CCN(C(=O)CCOCCOCCNC(=O)c4cnc(Nc5ccccc5C)c(NC(=O)c5csc6ccccc56)c4)CC3)cc(=O)c2c1 | PI3Kα (Homo sapiens, UniProt P42336, H1047R) | 6.30 to 7.00
Cc1ccccc1Nc1ncc(C(=O)NCCCCCC(=O)NCc2ccc3c(c2)CN(C2CCC(=O)NC2=O)C3=O)cc1NC(=O)c1csc2ccccc12 (centres unmarked) | PI3Kα (Homo sapiens, UniProt P42336, H1047R) | 6.30 to 7.00
Cc1ccccc1Nc1ncc(C(=O)NCCOCCOCCC(=O)NCc2ccc3c(c2)CN(C2CCC(=O)NC2=O)C3=O)cc1NC(=O)c1csc2ccccc12 (centres unmarked) | PI3Kα (Homo sapiens, UniProt P42336, H1047R) | 5.00 to 6.00
Cc1ccccc1Nc1ncc(C(=O)NCCCNc2cccc3c2C(=O)N(C2CCC(=O)NC2=O)C3=O)cc1NC(=O)c1csc2ccccc12 (centres unmarked) | PI3Kα (Homo sapiens, UniProt P42336, H1047R) | 6.30 to 7.00

Checklist item: pIC50 tested on PI3Kα (Homo sapiens, UniProt P42336, H1047R), entry "Cc1ccccc1Nc1ncc(C(=O)NCCOCCOCCOCCOCCC(=O)N[C@H](C(=O)N2C[C@H](O)C[C@H]2C(=O)N[C@@H](C)c2ccc(-c3scnc3C)cc2)C(C)(C)C)cc1NC(=O)c1csc2ccccc12" , value? 5.00 to 6.00

###

- subject-of-test: PI3Kα (Homo sapiens, UniProt P42336, H1047R)
- protocol-details: ADP-Glo IC50 assay
- condition-summary: class symbols; key not given
pIC50: −log10 of the molar value.
Recorded pIC50 values for a group of molecules are listed next.

molecule | pIC50
Cc1ncsc1-c1ccc(CNC(=O)[C@@H]2C[C@@H](O)CN2C(=O)[C@@H](NC(=O)CCCCCCCCCNC(=O)c2cc(NC(=O)c3nsc4ccccc34)c3n2CC(=O)N[C@@H]3c2cc(F)ccc2Cl)C(C)(C)C)cc1 [Example I-107] | > 7.00
Cc1ccccc1Nc1ncc(C(=O)NCCOCCOCCOCCOCCC(=O)NCc2ccc3c(c2)CN(C2CCC(=O)NC2=O)C3=O)cc1NC(=O)c1csc2ccccc12 (centres unmarked) [Example I-47] | 5.00 to 6.00

Look up pIC50: Cc1ncsc1-c1ccc([C@H](C)NC(=O)[C@@H]2C[C@@H](O)CN2C(=O)[C@@H](NC(=O)CCCCCCCCCNC(=O)c2cc(NC(=O)c3nsc4ccccc34)c3n2CC(=O)N[C@H]3c2cc(F)ccc2Cl)C(C)(C)C)cc1 [Example I-113] 6.30 to 7.00
